- tested_on: purified and unphosphorylated T315I Abl kinase domain (ABL_T315I_0P) (Mus musculus, UniProt P00520, T315I)
- Construct: The c-Abl T3151 KD (kinase domain) was purified as follows; Met-Ser-Leu (vector-derived residues) (N); made in house; host or cells: E. coli BL21(DE3) strains (Codon+RIL, or pSA0145 for the lambda phosphatase co-expression plasmid)
- method_notes: c-Abl T315I (unphosphorylated kinase domain) pyruvate kinase/lactate dehydrogenase coupled enzyme assay
- Type: biochemical
- details: 10 μM ATP
quantity_kind: ABL_T315I_0P (IC50)

Give ABL_T315I_0P (IC50) for the following compound: `COc1ccc(F)cc1-c1c[nH]c2ncc(-c3cnc(N)c(C(=O)N(C)C)c3)c(Cl)c12` D (<0.01 μM)

Give ABL_T315I_0P (IC50) for the following compound: `CN(C)C(=O)Cc1cncc(-c2cnc3[nH]cc(-c4cccc(F)c4F)c3c2Cl)c1` D (<0.01 μM)

Give ABL_T315I_0P (IC50) for the following compound: COc1ccccc1-c1c[nH]c2ncc(-c3cncc(C(O)C(=O)N(C)C)c3)c(C#N)c12 (stereo not shown) D (<0.01 μM)

Give ABL_T315I_0P (IC50) for the following compound: COc1ccccc1-c1n[nH]c2ncc(-c3cncc(C(O)C(=O)N(C)C)c3)c(Cl)c12 (stereo not shown) C (0.1-0.01 μM)

Give ABL_T315I_0P (IC50) for the following compound: `CNc1c(Br)cnc2[nH]cc(-c3ccccc3OC)c12` C (0.1-0.01 μM)

Give ABL_T315I_0P (IC50) for the following compound: OC(c1cncc(-c2cnc3[nH]cc(-c4ccccc4)c3c2Cl)c1)c1ncccc1F (stereo not shown) D (<0.01 μM)

Others:
Give ABL_T315I_0P (IC50) for the following compound: Nc1ncc(-c2cnc3[nH]cc(-c4cccc(F)c4)c3c2Cl)cc1C(=O)N1CCCC1CO (stereo not shown) D (<0.01 μM)

Give ABL_T315I_0P (IC50) for the following compound: `COc1ccc(F)cc1-c1c[nH]c2ncc(-c3cnc(N)c(C(=O)N(C)C)n3)c(Cl)c12` D (<0.01 μM)

Give ABL_T315I_0P (IC50) for the following compound: `CN(C)C(=O)c1cc(-c2cnc3[nH]cc(-c4cc(F)ccc4Cl)c3c2Cl)cnc1N` D (<0.01 μM)

Give ABL_T315I_0P (IC50) for the following compound: COc1ccccc1-c1c[nH]c2ncc(-c3cncc(C(O)C(=O)N(C)C)c3)c(C)c12 (stereo not shown) D (<0.01 μM)

Give ABL_T315I_0P (IC50) for the following compound: CNc1ncccc1-c1c[nH]c2ncc(-c3cncc(C(O)C(=O)N(C)C)c3)c(Cl)c12 (stereo not shown) C (0.1-0.01 μM)

Give ABL_T315I_0P (IC50) for the following compound: `CCN(C)C(=O)c1cc(-c2cnc3[nH]cc(-c4cccc(F)c4)c3c2Cl)cnc1N` D (<0.01 μM)

Give ABL_T315I_0P (IC50) for the following compound: COc1ccccc1-c1c[nH]c2ncc(-c3cncc(C(O)C(=O)N(C)C)c3)c(SC)c12 (stereo not shown) D (<0.01 μM)

Give ABL_T315I_0P (IC50) for the following compound: `COc1ccccc1-c1c[nH]c2ncc(-c3cccc(C(=O)N(C)C)c3)c(Cl)c12` D (<0.01 μM)

Give ABL_T315I_0P (IC50) for the following compound: `Nc1ncc(-c2cnc3[nH]cc(-c4cc(F)ccc4F)c3c2Cl)cc1C(=O)N1CCOCC1` D (<0.01 μM)

Give ABL_T315I_0P (IC50) for the following compound: COc1ccccc1-c1c[nH]c2ncc(-c3cncc(C(O)C(=O)N(C)C)c3)c(O)c12 (stereo not shown) C (0.1-0.01 μM)

Give ABL_T315I_0P (IC50) for the following compound: OC(c1cncc(-c2cnc3[nH]cc(-c4cccc(F)c4F)c3c2Cl)c1)c1ncccc1F (stereo not shown) D (<0.01 μM)

Give ABL_T315I_0P (IC50) for the following compound: OC(c1cncc(-c2cnc3[nH]cc(-c4ccccc4F)c3c2Cl)c1)c1ncccc1F (stereo not shown) D (<0.01 μM)

----------
Below is a list of entries, each paired with its recorded GI50 value.
- tested_on: ABL P210WT BAF3 cells (Homo sapiens)
- Construct: ABL P210WT BAF3; fused on or other part: P11274 (Breakpoint cluster region protein)
- method_notes: 96-well XTT cell survival assay, BaF3 ABL P210WT
- Format: cell-based
- details: ABL P210 WT, 72 hours, read-out: CELL BIO ABL P210WT BAF3 XTT (IC50)

Before answering, review these 4 worked examples.
Provide GI50, tested on ABL P210WT BAF3 cells (Homo sapiens), for COc1ccccc1-c1c[nH]c2ncc(-c3cncc(C(O)C(=O)N(C)C)c3)c(N)c12 (centres unmarked) . 100 to 1000 nM

Provide GI50, tested on ABL P210WT BAF3 cells (Homo sapiens), for `CNc1c(Br)cnc2[nH]cc(-c3ccccc3OC)c12` . > 1000 nM

Provide GI50, tested on ABL P210WT BAF3 cells (Homo sapiens), for `CN(C)C(=O)c1cc(-c2cnc3[nH]cc(-c4cccc(F)c4F)c3c2Cl)cnc1N` . 100 to 1000 nM

Provide GI50, tested on ABL P210WT BAF3 cells (Homo sapiens), for COc1ccccc1-c1c[nH]c2ncc(-c3cncc(C(O)C(=O)N(C)C)c3)c(O)c12 (centres unmarked) . > 1000 nM

# evaluate next
Provide GI50, tested on ABL P210WT BAF3 cells (Homo sapiens), for `COc1cc(F)ccc1-c1c[nH]c2ncc(-c3cnc(N)c(C(=O)N(C)C)c3)c(Cl)c12` . 10 to 100 nM

----------
Below is a list of entries, each paired with its recorded GI50 value.
- tested_on: ABL P210WT BAF3 cells (Homo sapiens, UniProt P00519)
- Construct: ABL P210WT BAF3; fused on or other part: P11274 (Breakpoint cluster region protein)
- Sequence (P00519 whole entry, change not shown, the tested form may be a part): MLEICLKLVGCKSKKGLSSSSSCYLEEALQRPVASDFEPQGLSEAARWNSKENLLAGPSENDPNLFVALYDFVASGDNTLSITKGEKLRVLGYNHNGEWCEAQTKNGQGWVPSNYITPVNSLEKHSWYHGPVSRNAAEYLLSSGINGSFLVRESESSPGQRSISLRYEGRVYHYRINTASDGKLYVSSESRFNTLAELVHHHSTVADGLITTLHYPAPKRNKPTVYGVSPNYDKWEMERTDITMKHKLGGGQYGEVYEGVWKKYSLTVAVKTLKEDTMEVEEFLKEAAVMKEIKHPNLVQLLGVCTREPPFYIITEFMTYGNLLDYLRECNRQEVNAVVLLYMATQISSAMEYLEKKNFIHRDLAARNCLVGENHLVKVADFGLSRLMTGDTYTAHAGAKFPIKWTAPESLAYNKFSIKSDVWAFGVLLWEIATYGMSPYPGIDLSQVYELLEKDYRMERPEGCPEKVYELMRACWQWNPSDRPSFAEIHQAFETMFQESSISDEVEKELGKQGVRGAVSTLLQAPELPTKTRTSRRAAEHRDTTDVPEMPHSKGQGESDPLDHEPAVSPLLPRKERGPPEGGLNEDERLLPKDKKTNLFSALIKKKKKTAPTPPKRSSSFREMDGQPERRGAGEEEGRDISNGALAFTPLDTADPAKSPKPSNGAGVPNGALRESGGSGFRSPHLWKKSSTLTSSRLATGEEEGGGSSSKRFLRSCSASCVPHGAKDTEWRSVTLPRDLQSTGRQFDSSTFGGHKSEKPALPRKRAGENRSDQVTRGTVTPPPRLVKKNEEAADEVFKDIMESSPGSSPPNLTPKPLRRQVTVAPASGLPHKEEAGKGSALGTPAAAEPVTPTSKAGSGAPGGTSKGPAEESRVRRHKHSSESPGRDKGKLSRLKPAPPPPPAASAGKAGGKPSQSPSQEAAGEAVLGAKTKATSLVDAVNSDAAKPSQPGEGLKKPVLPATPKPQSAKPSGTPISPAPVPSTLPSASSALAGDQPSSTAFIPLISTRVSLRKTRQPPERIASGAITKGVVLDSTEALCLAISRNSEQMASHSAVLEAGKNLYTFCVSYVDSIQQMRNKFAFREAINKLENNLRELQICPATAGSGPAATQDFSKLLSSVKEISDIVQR
- method_notes: 96-well XTT cell survival assay, BaF3 ABL P210WT
- Format: cell-based
- details: ABL P210 WT, 72 hours, read-out: CELL BIO ABL P210WT BAF3 XTT (IC50)

Give GI50 for the following compound: `CN(C)C(=O)c1cncc(-c2cnc3[nH]cc(-c4ccccc4)c3c2Cl)c1` > 1000 nM

Give GI50 for the following compound: `COc1ccccc1-c1c[nH]c2ncc(-c3cncc(CC(=O)N(C)C)c3)c(Cl)c12` 10 to 100 nM

Others:
Give GI50 for the following compound: `COc1ccccc1-c1c[nH]c2ncc(-c3ccc(N)c(C(=O)N(C)C)c3)c(Cl)c12` < 10 nM

Give GI50 for the following compound: NC(=O)C(O)c1cncc(-c2cnc3[nH]cc(-c4ccccc4F)c3c2Cl)c1 (centres unmarked) > 1000 nM

Give GI50 for the following compound: `CN(C)C(=O)c1cncc(-c2cnc3[nH]cc(-c4ccc(F)cc4F)c3c2Cl)c1` > 1000 nM

Give GI50 for the following compound: COc1ccccc1-c1c[nH]c2ncc(-c3cncc(C(O)C(=O)N(C)C)c3)c(OC)c12 (centres unmarked) 10 to 100 nM

Give GI50 for the following compound: `COc1ccccc1-c1c[nH]c2ncc(-c3cnc(N)c(C(=O)N4CCOCC4)c3)c(Cl)c12` 100 to 1000 nM

Give GI50 for the following compound: `Nc1ncc(-c2cnc3[nH]cc(-c4cc(F)ccc4F)c3c2Cl)cc1C(=O)N1CC(O)C1` 100 to 1000 nM

Give GI50 for the following compound: Nc1ncc(-c2cnc3[nH]cc(-c4cccc(F)c4)c3c2Cl)cc1C(=O)N1CCCC1CO (centres unmarked) 100 to 1000 nM

Give GI50 for the following compound: COc1ccncc1-c1c[nH]c2ncc(-c3cncc(C(O)C(=O)N(C)C)c3)c(Cl)c12 (centres unmarked) 100 to 1000 nM

Give GI50 for the following compound: `COc1cc(Cl)ccc1-c1c[nH]c2ncc(-c3cnc(N)c(C(=O)N(C)C)c3)c(Cl)c12` 10 to 100 nM

Give GI50 for the following compound: COc1cnccc1-c1c[nH]c2ncc(-c3cncc(C(O)C(=O)N(C)C)c3)c(Cl)c12 (centres unmarked) > 1000 nM

Give GI50 for the following compound: CCc1c(-c2cncc(C(O)C(=O)N(C)C)c2)cnc2[nH]cc(-c3ccccc3OC)c12 (centres unmarked) 100 to 1000 nM

----------
- tested_on: purified and unphosphorylated T315I Abl kinase domain (ABL_T315I_0P) (Mus musculus, UniProt P00520, T315I)
- Construct: The c-Abl T3151 KD (kinase domain) was purified as follows; Met-Ser-Leu (vector-derived residues) (N); made in house; host or cells: E. coli BL21(DE3) strains (Codon+RIL, or pSA0145 for the lambda phosphatase co-expression plasmid)
- Sequence (P00520 242-493 T315I limits assumed): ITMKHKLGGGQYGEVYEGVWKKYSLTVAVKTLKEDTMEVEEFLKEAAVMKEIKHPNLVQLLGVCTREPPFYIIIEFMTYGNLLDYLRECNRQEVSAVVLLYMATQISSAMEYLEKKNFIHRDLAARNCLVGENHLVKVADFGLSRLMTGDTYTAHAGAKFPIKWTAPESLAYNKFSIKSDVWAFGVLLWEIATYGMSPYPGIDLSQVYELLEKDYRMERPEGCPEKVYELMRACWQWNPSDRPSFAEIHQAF
- method_notes: c-Abl T315I (unphosphorylated kinase domain) pyruvate kinase/lactate dehydrogenase coupled enzyme assay
- Type: biochemical
- details: 10 μM ATP
- Procedure: Although the first of these examples uses the kinase domain of a mutant form of Abl T315I (“Abl T315I KD”), the kinase assays may use various forms of mutant and wild type enzymes, including, for example, the entire protein, the kinase domain, or a portion thereof (e.g. Abl Y393F). […] Activity was measured by following the time-dependent loss of NADH by absorbance spectroscopy at 340 nm. […] Screening data was evaluated using the equation: Z′=1-[3*(σ++σ−)/|μ+−μ−|] […]
quantity_kind: ABL_T315I_0P (IC50)

Before answering, review these 4 worked examples.
Give ABL_T315I_0P (IC50) for the following molecule: `CN(C)C(=O)C(=O)c1cncc(-c2cnc3[nH]cc(-c4cccc(F)c4F)c3c2Cl)c1` C (0.1-0.01 μM)

Give ABL_T315I_0P (IC50) for the following molecule: CN(C)C(=O)C(O)c1cncc(-c2cnc3[nH]cc(-c4cccc(F)c4F)c3c2Cl)c1 (centres unmarked) D (<0.01 μM)

Give ABL_T315I_0P (IC50) for the following molecule: `CN(C)C(=O)c1cc(-c2cnc3[nH]cc(-c4cc[nH]n4)c3c2Cl)cnc1N` C (0.1-0.01 μM)

Give ABL_T315I_0P (IC50) for the following molecule: `Nc1ncc(-c2cnc3[nH]cc(-c4cc(F)ccc4F)c3c2Cl)cc1C(=O)N1CC(O)C1` D (<0.01 μM)

Others:
Give ABL_T315I_0P (IC50) for the following molecule: `Nc1ncc(-c2cnc3[nH]cc(-c4cccc(F)c4)c3c2Cl)cc1C(=O)N1CCOCC1` D (<0.01 μM)
